Provenance of the data: the supplement of paper PMC11061612

Tested on: OVCAR-4 (Ovarian Carcinoma)
Experiment: Bliss excess, mean over the matrix (fraction); higher = more synergy
Bliss excess of -0.007 or higher: 1.0. Under -0.007: 0.0.

>>> class("CC(=O)c1c(C)c2cnc(Nc3ccc(N4CCNCC4)cn3)nc2n(C2CCCC2)c1=O [Palbociclib] + CN(CC[C@H](CSC1=CC=CC=C1)NC2=C(C=C(C=C2)S(=O)(=O)NC(=O)C3=CC=C(C=C3)N4CCC(CC4)[C@H](C5=CC=CC=C5C6=CC=C(C=C6)Cl)O)S(=O)(=O)C(F)(F)F)CCO [AZD4320] (first compound max 10 µM, 7x7, partner max 1 µM)")
0.0
>>> class("CCc1c2c(nc3ccc(O)cc13)-c1cc3c(c(=O)n1C2)COC(=O)[C@]3(O)CC [SN-38] + CN(C)CCCOc1ccc(-c2ccc3ncc4c(c3c2)n(C2CCOCC2)c(=O)n4C)cn1 [AZD0156] (first compound max 0.3 µM, 7x7, partner max 1 µM)")
0.0
>>> class("CC1(C)CCC(CN2CCN(c3ccc(C(=O)NS(=O)(=O)c4ccc(NCC5CCOCC5)c([N+](=O)[O-])c4)c(Oc4cnc5[nH]ccc5c4)c3)CC2)=C(c2ccc(Cl)cc2)C1 [Venetoclax] + CN(C)CCCOc1ccc(-c2ccc3ncc4c(c3c2)n(C2CCOCC2)c(=O)n4C)cn1 [AZD0156] (first compound max 1 µM, 7x7, partner max 1 µM)")
0.0
>>> class("Cc1c2c(nn1C)CSCc1cc(n(C)n1)CSc1cc(c3ccccc3c1)OCCCc1c(C(=O)O)n(C)c3c-2c(Cl)ccc13 [AZD5991] + C[C@@H]1COCCN1C2=NC(=NC(=C2)C3(CC3)[S@](=N)(=O)C)C4=C5C=CNC5=NC=C4 [AZD6738] (first compound max 1 µM, 7x7, partner max 10 µM)")
0.0
>>> class("C=CCn1c(=O)c2cnc(Nc3ccc(N4CCN(C)CC4)cc3)nc2n1-c1cccc(C(C)(C)O)n1 [AZD1775] + C[C@@H]1COCCN1C2=NC(=NC(=C2)C3(CC3)[S@](=N)(=O)C)C4=C5C=CNC5=NC=C4 [AZD6738] (first compound max 1 µM, partner max 10 µM)")
1.0
>>> class("CC1(C)CCC(CN2CCN(c3ccc(C(=O)NS(=O)(=O)c4ccc(NCC5CCOCC5)c([N+](=O)[O-])c4)c(Oc4cnc5[nH]ccc5c4)c3)CC2)=C(c2ccc(Cl)cc2)C1 [Venetoclax] + Cc1cc2ncnn2cc1Nc1ncc2c(n1)n(C1CCOCC1)c(=O)n2C [AZD7648] (first compound max 1 µM, 7x7, partner max 10 µM)")
0.0
>>> class("CN(C)CCCOc1ccc(-c2ccc3ncc4c(c3c2)n(C2CCOCC2)c(=O)n4C)cn1 [AZD0156] + C[C@@H]1COCCN1C2=NC(=NC(=C2)C3(CC3)[S@](=N)(=O)C)C4=C5C=CNC5=NC=C4 [AZD6738] (first compound max 1 µM, 7x7, partner max 10 µM)")
1.0
>>> class("CC(=O)c1c(C)c2cnc(Nc3ccc(N4CCNCC4)cn3)nc2n(C2CCCC2)c1=O [Palbociclib] + Cc1c2c(nn1C)CSCc1cc(n(C)n1)CSc1cc(c3ccccc3c1)OCCCc1c(C(=O)O)n(C)c3c-2c(Cl)ccc13 [AZD5991] (first compound max 10 µM, 7x7, partner max 1 µM)")
0.0
>>> class("Cc1cc2ncnn2cc1Nc1ncc2c(n1)n(C1CCOCC1)c(=O)n2C [AZD7648] + C[C@@H]1COCCN1C2=NC(=NC(=C2)C3(CC3)[S@](=N)(=O)C)C4=C5C=CNC5=NC=C4 [AZD6738] (first compound max 10 µM, 7x7, partner max 10 µM)")
1.0
>>> class("COc1cccc(OCCCN)c1-c1cc(Nc2cnc(C#N)cn2)n[nH]1 [Prexasertib] + C=CCn1c(=O)c2cnc(Nc3ccc(N4CCN(C)CC4)cc3)nc2n1-c1cccc(C(C)(C)O)n1 [AZD1775] (first compound max 1 µM, partner max 1 µM)")
1.0
>>> class("CN(C)CCCOc1ccc(-c2ccc3ncc4c(c3c2)n(C2CCOCC2)c(=O)n4C)cn1 [AZD0156] + C=CCn1c(=O)c2cnc(Nc3ccc(N4CCN(C)CC4)cc3)nc2n1-c1cccc(C(C)(C)O)n1 [AZD1775] (first compound max 1 µM, partner max 1 µM)")
0.0
>>> class("CC(=O)c1c(C)c2cnc(Nc3ccc(N4CCNCC4)cn3)nc2n(C2CCCC2)c1=O [Palbociclib] + CC1(C)CCC(CN2CCN(c3ccc(C(=O)NS(=O)(=O)c4ccc(NCC5CCOCC5)c([N+](=O)[O-])c4)c(Oc4cnc5[nH]ccc5c4)c3)CC2)=C(c2ccc(Cl)cc2)C1 [Venetoclax] (first compound max 10 µM, 7x7, partner max 1 µM)")
0.0

====

System: TE-1 (Esophageal Squamous Cell Carcinoma)
Assay: combination Emax (second highest fraction inhibited in the dose matrix, 72 h); higher = more inhibition; extreme values may be limits of the assay
Collected combination Emax values appear next to each entry.
Parameter: combination Emax

>>> quantitative_readout("Cc1c2c(nn1C)CSCc1cc(n(C)n1)CSc1cc(c3ccccc3c1)OCCCc1c(C(=O)O)n(C)c3c-2c(Cl)ccc13 [AZD5991] + CN(C)CCCOc1ccc(-c2ccc3ncc4c(c3c2)n(C2CCOCC2)c(=O)n4C)cn1 [AZD0156] (first compound max 1 µM, 7x7, partner max 1 µM)")
0.635
>>> quantitative_readout("CC1(C)CCC(CN2CCN(c3ccc(C(=O)NS(=O)(=O)c4ccc(NCC5CCOCC5)c([N+](=O)[O-])c4)c(Oc4cnc5[nH]ccc5c4)c3)CC2)=C(c2ccc(Cl)cc2)C1 [Venetoclax] + Cn1cnc2c(F)c(Nc3ccc(Br)cc3Cl)c(C(=O)NOCCO)cc21 [Selumetinib] (first compound max 1 µM, 7x7, partner max 3 µM)")
0.245
>>> quantitative_readout("Cc1c2c(nn1C)CSCc1cc(n(C)n1)CSc1cc(c3ccccc3c1)OCCCc1c(C(=O)O)n(C)c3c-2c(Cl)ccc13 [AZD5991] + C[C@@H](Nc1cc(F)cc(F)c1)c1cc(C(=O)N(C)C)cc2c(=O)cc(N3CCOCC3)oc12 [AZD8186] (first compound max 1 µM, 7x7, partner max 3 µM)")
0.589
>>> quantitative_readout("C[C@@H](c1ccc2nccn2c1)n1nnc2ncc(-c3cnn(C)c3)nc21 [Savolitinib] + CC1(C)CCC(CN2CCN(c3ccc(C(=O)NS(=O)(=O)c4ccc(NCC5CCOCC5)c([N+](=O)[O-])c4)c(Oc4cnc5[nH]ccc5c4)c3)CC2)=C(c2ccc(Cl)cc2)C1 [Venetoclax] (first compound max 1 µM, 7x7, partner max 1 µM)")
0.0986
>>> quantitative_readout("Cc1cc2ncnn2cc1Nc1ncc2c(n1)n(C1CCOCC1)c(=O)n2C [AZD7648] + CN(C)CCCOc1ccc(-c2ccc3ncc4c(c3c2)n(C2CCOCC2)c(=O)n4C)cn1 [AZD0156] (first compound max 10 µM, 7x7, partner max 1 µM)")
0.19
>>> quantitative_readout("NC1(C(=O)N[C@@H](CCO)c2ccc(Cl)cc2)CCN(c2ncnc3[nH]ccc23)CC1 [Capivasertib] + CC(C)n1c(=O)n(C)c2cnc3cc(F)c(-c4ccc(OCCCN5CCCCC5)nc4)cc3c21 [AZD1390] (first compound max 10 µM, 7x7, partner max 0.3 µM)")
0.153
>>> quantitative_readout("CN(CCO)CC[C@H](CSc1ccccc1)Nc1ccc(S(=O)(=O)NC(=O)c2ccc(N3CCC([C@@H](O)c4ccccc4-c4ccc(Cl)cc4)CC3)cc2)cc1S(=O)(=O)C(F)(F)F [AZD4320] + Cc1cc2ncnn2cc1Nc1ncc2c(n1)n(C1CCOCC1)c(=O)n2C [AZD7648] (first compound max 1 µM, 7x7, partner max 10 µM)")
0.38

====

System: NUGC-3 (Gastric Carcinoma)
Test: Bliss excess, mean over the matrix (fraction); higher = more synergy
Parameter: Bliss excess

>>> quantitative_readout("Cc1c2c(nn1C)CSCc1cc(n(C)n1)CSc1cc(c3ccccc3c1)OCCCc1c(C(=O)O)n(C)c3c-2c(Cl)ccc13 [AZD5991] + CN(C)CCCOc1ccc(-c2ccc3ncc4c(c3c2)n(C2CCOCC2)c(=O)n4C)cn1 [AZD0156] (first compound max 1 µM, 7x7, partner max 1 µM)")
0.0167
>>> quantitative_readout("CC(=O)Nc1cccc(-n2c(=O)n(C3CC3)c(=O)c3c(Nc4ccc(I)cc4F)n(C)c(=O)c(C)c32)c1 [Trametinib] + Cc1nc(-c2cn3c(n2)-c2ccc(-c4cnn(C(C)(C)C(N)=O)c4)cc2OCC3)n(C(C)C)n1 [Taselisib] (first compound max 1 µM, 7x7, partner max 10 µM)")
0.104
>>> quantitative_readout("Cc1c2c(nn1C)CSCc1cc(n(C)n1)CSc1cc(c3ccccc3c1)OCCCc1c(C(=O)O)n(C)c3c-2c(Cl)ccc13 [AZD5991] + CC1(C)CCC(CN2CCN(c3ccc(C(=O)NS(=O)(=O)c4ccc(NCC5CCOCC5)c([N+](=O)[O-])c4)c(Oc4cnc5[nH]ccc5c4)c3)CC2)=C(c2ccc(Cl)cc2)C1 [Venetoclax] (first compound max 1 µM, 7x7, partner max 1 µM)")
-0.0125
>>> quantitative_readout("CN(CCO)CC[C@H](CSc1ccccc1)Nc1ccc(S(=O)(=O)NC(=O)c2ccc(N3CCC([C@@H](O)c4ccccc4-c4ccc(Cl)cc4)CC3)cc2)cc1S(=O)(=O)C(F)(F)F [AZD4320] + C=CCn1c(=O)c2cnc(Nc3ccc(N4CCN(C)CC4)cc3)nc2n1-c1cccc(C(C)(C)O)n1 [AZD1775] (first compound max 1 µM, partner max 1 µM)")
-0.0346
>>> quantitative_readout("Cc1c2c(nn1C)CSCc1cc(n(C)n1)CSc1cc(c3ccccc3c1)OCCCc1c(C(=O)O)n(C)c3c-2c(Cl)ccc13 [AZD5991] + Cn1cnc2c(F)c(Nc3ccc(Br)cc3Cl)c(C(=O)NOCCO)cc21 [Selumetinib] (first compound max 1 µM, 7x7, partner max 3 µM)")
0.0106
>>> quantitative_readout("CN(CCO)CC[C@H](CSc1ccccc1)Nc1ccc(S(=O)(=O)NC(=O)c2ccc(N3CCC([C@@H](O)c4ccccc4-c4ccc(Cl)cc4)CC3)cc2)cc1S(=O)(=O)C(F)(F)F [AZD4320] + C[C@@H]1COCCN1C2=NC(=NC(=C2)C3(CC3)[S@](=N)(=O)C)C4=C5C=CNC5=NC=C4 [AZD6738] (first compound max 1 µM, 7x7, partner max 10 µM)")
-0.0445
